# System: RARa:RXR (NR concentration 270 nM, RXRa partner concentration 90 nM)
# assay.overview: PBM binding z-score (relative to random genomic background probes); higher = stronger binding; sequences stand for … in GC…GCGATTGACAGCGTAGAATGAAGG
Use Yes when the recorded PBM binding z-score is no lower than 1; use No when it is lower.

residues	class
CCTGCTGGGCCAAAAAGGTCATTGATGCCGATAA	Yes
TCTATTAGTTGATTAGGGCAACCGGAACAGCGGA	No
GCAGACAGGTGAAACGCAGGTAACTCAGGGTGGC	No
ACTATAAGTTGACTTAGGGCAACCGATACGACGC	No
ATCTCTACGTAAAGTTCAGTGAAAGATCGATAGA	Yes
TCATATAGGTAATACAGGTGAAAGACGGCATCTA	Yes
ATCTCTAGGTAAAAGCTCAGTGAATCCCGAGGAT	No
TCTAGTTGGTCACGGAGCTCACACACGACGGGTA	No
CCTTACGGGTCACTGACAGATTATAGCATTTGGA	Yes
CCTAGCAGGCCAATCTGGGTCACTCATGGCTTGA	No
GCTTACGGGTCAAAGGCTATAGCATGAATAGAAT	Yes
CCAACTAGGTCATCCAGGACAGTGAATACATTGA	Yes
ATCGAAAGGTCGTGAGGTTAGTATACAGAAAGGC	Yes
TCTCGGAGGACAAGAAAGGTCAGAGCTCGACATC	Yes
GCTTGTATATCAAGGTTAAGAAAGACTAAGCTAA	No
TCACATAGGTAAAGGTGAAAGTCGAACGATATGA	Yes
AGTCAAAGTTCACTAGGTAACGTAAGATTCAGCT	Yes
AATACAGTGTCACTAGGCCAGAGTAGGTACGAAT	No
ATCTCTAGGTAAAGATAGTTCAGTGCATGCAAAT	No
TTACCAAGGTGCAAGGTCGTTGATGCACGCCTTG	Yes
TCATGTAGGTAATACAGGTGAAAGTCGGCATCTA	No
CCTACTTGGCCATCAGGTCATTGATATCAACGTT	Yes
CCGACTGGAGCATAAGGTTACCATAAGCCAGCCC	Yes
CCGACTGGGCCAAGGTTACCATAACGCACAGCCA	No
CGTCCAAGGTCAAAGAGGTCAGTGAATGCCGAGT	Yes
TCTGATAGGTCAACGATGGTCAGCTAATCTGCTA	Yes
ATGTGTAGGTTATCGGGTCATTCAGTTTGCGCAT	Yes

----------
# System: PPARa:RXRa (NR concentration 270 nM, RXRa partner concentration 90 nM)
# assay.overview: PBM binding z-score (relative to random genomic background probes); higher = stronger binding; sequences stand for … in GC…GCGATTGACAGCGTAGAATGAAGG
quantity.kind: PBM binding z-score

residues	measurement.target	observed
CCTTACGGGTCACTGACAGGTTATTGCATTTGGA	PPARa:RXRa (NR concentration 270 nM, RXRa partner concentration 90 nM)	5.14
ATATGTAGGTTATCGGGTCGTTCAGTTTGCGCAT	PPARa:RXRa (NR concentration 270 nM, RXRa partner concentration 90 nM)	3.79
ACAATGAGGTTACCAAAGATCAGGGAAACGCTTG	PPARa:RXRa (NR concentration 270 nM, RXRa partner concentration 90 nM)	3.26
CCGACTGGGGCAAGGTTACCATAACGCACAGCCA	PPARa:RXRa (NR concentration 270 nM, RXRa partner concentration 90 nM)	2.12
TTTAGCAGGCCAGAGGGTCACTCAAGAGGTACGG	PPARa:RXRa (NR concentration 270 nM, RXRa partner concentration 90 nM)	2.32
ATGCCAAGGTGATCGTGAGGTCGTTGATACTAAC	PPARa:RXRa (NR concentration 270 nM, RXRa partner concentration 90 nM)	1.55
TGAATGAGGCTATAAGATCAGGGAACGTTGCAAA	PPARa:RXRa (NR concentration 270 nM, RXRa partner concentration 90 nM)	-0.176
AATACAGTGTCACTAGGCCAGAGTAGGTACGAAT	PPARa:RXRa (NR concentration 270 nM, RXRa partner concentration 90 nM)	1.44

Just for reference, the supplement of paper PMC6555819 is where these values come from.
